Tested on: LNCaP
EXPERIMENTAL DETAILS: Cytotoxic concentration in prostate specific antigen (PSA) producing human LNCaP cells
Format: functional, cell-based
pIC50: −log10 of the molar value. *1 amine or outer side, *2 acyl side, *3 side chain or, on linkers, in order; H or OH if unused. Where a SMILES comes first, the peptide text is derived from it. [ ]: non-standard residue; d: D form. The star is where a group is joined. X1 = O=c1[nH]c(=O)n([C@H]2C[C@H](O)[C@@H](CO*)O2)cc1F; Morpholide = C1CN(*)CCO1; Aib = CC(C)(N)C(=O)O; CO = O=C([*:1])[*:2]

>  <COMPOUND>
O=c1[nH]c(=O)n([C@H]2C[C@H](O)[C@@H](CO)O2)cc1F

>  <pIC50>
7.16

$$$$
>  <COMPOUND>
CC(C)C[C@H](NC(=O)[C@H](CCCCN)NC(=O)[C@H](CO)NC(=O)[C@H](CO)NC(=O)[C@H](Cc1c[nH]cn1)NC(=O)N1CCOCC1)C(=O)N[C@@H](CCC(N)=O)C(=O)N[C@@H](CC(C)C)C(=O)NC(C)(C)C(=O)OC[C@H]1O[C@@H](n2cc(F)c(=O)[nH]c2=O)C[C@@H]1O ({Morpholide-CO}-HSSKLQL[Aib]-X1)

>  <pIC50>
6.93

$$$$

Every entry's value here was drawn from ChEMBL document CHEMBL1134909.
